system: EVSA-T (human breast carcinoma); test: Anti-proliferative activity, Alamar Blue assay, EVSA-T; type: cell-based; settings: Homo sapiens, EVSA-T, 72 h, EVSA-T cells, 72 hours, Alamar Blue; read-out: EVSA-T prolif
Counter-ions that a name gives are not always drawn.
measurement_name: EC50
Please answer using the number first and the unit second.

Look over these answered cases.
Give recorded EC50 with EVSA-T (human breast carcinoma) for the following molecule: C[C@@H]1CN(CC(=O)N2CC(C)(C)c3ncc(Cc4ccc(F)cc4)cc32)[C@@H](CN2C[C@@H](C)N[C@@H](C)C2)CN1 [Example 22, dihydrochloride] 30 nM

Give recorded EC50 with EVSA-T (human breast carcinoma) for the following molecule: C[C@@H]1CN(CC(=O)N2CC(C)(C)c3ncc(Cc4ccc(F)cc4)cc32)[C@@H](CN2C3CCC2COC3)CN1 [Example 17, dihydrochloride] 3.8 nM

Give recorded EC50 with EVSA-T (human breast carcinoma) for the following molecule: C[C@@H]1CN(CC(=O)N2CC(C)(C)c3ncc(Cc4ccc(F)cc4F)cc32)[C@@H](CN2C[C@H](CO)OC[C@H]2C)CN1 [Example 120, dihydrochloride] 0.3 nM

Give recorded EC50 with EVSA-T (human breast carcinoma) for the following molecule: C[C@@H]1CN(CC(=O)N2CC(C)(C)c3cnc(Cc4ccc(F)cc4F)cc32)[C@@H](CN2CCOC[C@]2(C)CO)CN1 (single isomer, unassigned) [Example 66, dihydrochloride] 0.8 nM

Give recorded EC50 with EVSA-T (human breast carcinoma) for the following molecule: C[C@@H]1CN(CC(=O)N2CC(C)(C)c3ncc(Cc4ccc(F)cc4)cc32)[C@@H](CN2CCOCC(F)(F)C2)CN1 [Example 28, dihydrochloride] 3.1 nM

Give recorded EC50 with EVSA-T (human breast carcinoma) for the following molecule: C[C@@H]1CN(CC(=O)N2CC(C)(C)c3nnc(Cc4ccc(F)cc4F)cc32)[C@@H](CN2[C@H](C)COC[C@H]2C)CN1 [Example 88, dihydrochloride] 0.24 nM

Give recorded EC50 with EVSA-T (human breast carcinoma) for the following molecule: C[C@@H]1CN(CC(=O)N2CC(C)(C)c3ncc(Cc4ccc(F)cc4)cc32)[C@@H](CN2CCOC(C#N)C2)CN1 (some centres unmarked) 1.1 nM

Give recorded EC50 with EVSA-T (human breast carcinoma) for the following molecule: C[C@@H]1CN(CC(=O)N2CC(C)(C)c3ncc(Cc4ccc(F)cc4)cc32)[C@@H](CN2CCCC(F)(F)C2)CN1 [Example 3, dihydrochloride] 6.8 nM

Please examine the following record next.
Give recorded EC50 with EVSA-T (human breast carcinoma) for the following molecule: C[C@@H]1CN(CC(=O)N2CC(C)(C)c3ncc(Cc4ccc(F)cc4)cc32)[C@@H](CN2CCOCC2(C)C(=O)O)CN1 (some centres unmarked) [Example 59, dihydrochloride] 42 nM

// provenance: patent US9980973B2
